Target: HLA-A*03:01
Test: IEDB peptide-MHC binding, purified MHC/competitive/fluorescence; filed as Kd, often an IC50 or EC50 that approximates it; bounds were set here for any values at or beyond the usual limits of such assays
Details: source organism: Escherichia coli str. K-12 substr. MG1655
measureName: pKd
One number for each entry, as −log10 of the molar value.

>>> df
   orderedresidues  measurename   val
0        RINEGWPAY          pKd  7.37

Okay, now this sequence:
So what does the record say about pKd for KVGITGFCY ?
5.66

---

Biological target: HLA-A*02:19
Experiment: IEDB peptide-MHC binding, purified MHC/competitive/fluorescence; filed as Kd, often an IC50 or EC50 that approximates it; bounds were set here for any values at or beyond the usual limits of such assays
Conditions: source organism: Vibrio parahaemolyticus AQ3810
pKd: −log10 of the molar value.
measureName: pKd

Return pKd measured with HLA-A*02:19 given this sequence: MLTNASGHA
≤ 4.70

---

Molecular target: HLA-A*02:12
Experiment: IEDB peptide-MHC binding, purified MHC/competitive/fluorescence; filed as Kd, often an IC50 or EC50 that approximates it; bounds were set here for any values at or beyond the usual limits of such assays
Conditions: source organism: Entamoeba dispar SAW760
measureName: Kd

State the recorded Kd for this entry: KDGTLFYCY
≥ 20 µM

---

Target: HLA-B*40:02
Assay: IEDB peptide-MHC binding, purified MHC/competitive/radioactivity; filed as Kd, often an IC50 or EC50 that approximates it; bounds were set here for any values at or beyond the usual limits of such assays
Details: source organism: SARS coronavirus Tor2
measureName: log10(Kd) (log10 of the value in µM)
Values below are the log10 of the recorded Kd, with µM as the unit.

>>> df
   orderedresidues    val
0        EEVVENPTI   0.69
1        FENKTTLPV  -1.60
2       GEDTVWEVQG   1.26
3        TELEPPCRF   1.15

Attention now turns to another entry.
For QEIQLLAAV , what is its reported log10(Kd)?
1.29

---

Please go through the items and note down their pKd.
Biological target: HLA-A*31:01
Test: IEDB peptide-MHC binding, purified MHC/competitive/radioactivity; filed as Kd, often an IC50 or EC50 that approximates it; bounds were set here for any values at or beyond the usual limits of such assays
Details: source organism: Vaccinia virus WR
Answers are plain numbers, as −log10 of the molar value.

   orderedresidues   val
0       GMDYEEYKSK  5.77
1        QLLRLMADK  5.59
2       KSIIIPFIAY  5.86

For each of the sequences below, note its pKd.
1. KLDDVEKEK
2. ELYDTSPTKR
3. CIFAFIDFSK

[5.32, 5.73, 6.87]

---

I'd be grateful if you could share measured Kd for these entries.
Target: HLA-A*68:01
Assay: IEDB peptide-MHC binding, purified MHC/competitive/radioactivity; filed as Kd, often an IC50 or EC50 that approximates it; bounds were set here for any values at or beyond the usual limits of such assays
Details: source organism: Dengue virus 1 Brazil/97-11/1997
Note: state the figure and append the unit.

Could I get Kd for every one of these entries?
1. CTSQILLMR
2. DVISRRDQR

1: 16.7 nM; 2: 66.3 nM

---

Target: HLA-A*29:02
Test: IEDB peptide-MHC binding, purified MHC/direct/fluorescence; filed as Kd, often an IC50 or EC50 that approximates it; bounds were set here for any values at or beyond the usual limits of such assays
Conditions: source organism: Zaire ebolavirus
measureName: Kd

>>> df
   orderedresidues  measurename      val
0        EAEKQLQQY           Kd  ≥ 20 µM

Now look at this one.
For the sequence FLILPQAKK , what Kd is on record?
≥ 20 µM

---

Biological target: HLA-A*68:02
Assay: IEDB peptide-MHC binding, purified MHC/competitive/fluorescence; filed as Kd, often an IC50 or EC50 that approximates it; bounds were set here for any values at or beyond the usual limits of such assays
Conditions: source organism: Coxiella burnetii 'MSU Goat Q177'
pKd: −log10 of the molar value.
measureName: pKd

Name the reported pKd value associated with the sequence AVDWYQQRI
≤ 4.70

---

Molecular target: HLA-B*08:01
Assay: IEDB peptide-MHC binding, purified MHC/competitive/radioactivity; filed as Kd, often an IC50 or EC50 that approximates it; bounds were set here for any values at or beyond the usual limits of such assays
Settings: source organism: Vaccinia virus WR
measureName: pKd
Numbers only, as −log10 of the molar value.

Before answering, review these 4 worked examples.
In [3]: df
Out[3]:
   orderedresidues  assayedtarget  measurename   val
0        NPGARNARL    HLA-B*08:01          pKd  8.21
1        GLLKKFEFL    HLA-B*08:01          pKd  7.33
2        SLNTKFKTL    HLA-B*08:01          pKd  8.06
3        CIKSHSVSL    HLA-B*08:01          pKd  8.64

Now for another entry.
Form field: reported pKd of SMFMSLLPA
7.26

---

Target: HLA-B*07:02
Assay: IEDB peptide-MHC binding, purified MHC/competitive/radioactivity; filed as Kd, often an IC50 or EC50 that approximates it; bounds were set here for any values at or beyond the usual limits of such assays
Conditions: source organism: Hepatitis C virus (isolate H)
measureName: Kd (µM)
Numbers only, in µM.

Provide the documented Kd with HLA-B*07:02 as the system for HPALVFDITK
3.04

---

Biological target: HLA-A*02:06
Assay: IEDB peptide-MHC binding, purified MHC/competitive/radioactivity; filed as Kd, often an IC50 or EC50 that approximates it; bounds were set here for any values at or beyond the usual limits of such assays
Conditions: source organism: Dengue virus 1 Brazil/97-11/1997
pKd: −log10 of the molar value.
Use 8 as the dividing line for pKd, with the line itself on the satisfied side and lower values as not satisfied.

Below are worked cases with known answers.
   orderedresidues  assignedclass
0        IILEFFLMV      satisfied
1       LLLTIGLSLV  not satisfied

Entry FMNEDHWFS : is its pKd no less than 8?
not satisfied

Subsequent entry: VVIGLLFMI
satisfied

---

I'd be grateful if you could share measured Kd for these entries.
Molecular target: HLA-A*30:01
Test: IEDB peptide-MHC binding, purified MHC/competitive/radioactivity; filed as Kd, often an IC50 or EC50 that approximates it; bounds were set here for any values at or beyond the usual limits of such assays
Details: source organism: Dengue virus 3 Martinique/1243/1999

Use these answered entries as a reference point.
>>> print(df.to_string())
   orderedresidues      val
0        EVKTCTWPK  9340 nM
1        TFKNAHAKK   111 nM

As a next step, examine the sequence that follows.
Using the record for MFKKRNLTI , report its Kd.
143 nM

---

Target: HLA-B*18:01
Assay: IEDB peptide-MHC binding, purified MHC/competitive/fluorescence; bounds were set here for any values at or beyond the usual limits of such assays
Conditions: source organism: Homo sapiens
measureName: IC50
Please answer in the form of a number followed by its unit of measurement.

Return IC50 measured with HLA-B*18:01 given this sequence: FPHTELANL
422 nM

---

Molecular target: HLA-A*02:01
Assay: IEDB peptide-MHC binding, purified MHC/competitive/fluorescence; filed as Kd, often an IC50 or EC50 that approximates it; bounds were set here for any values at or beyond the usual limits of such assays
Conditions: source organism: Homo sapiens
pKd: −log10 of the molar value.
measureName: pKd

>>> print(df.to_string())
   orderedresidues     val
0        SVDSDHLGY  ≤ 4.70

Please examine the following record next.
Give HLA-A*02:01 pKd for GVRQFSGWM
≤ 4.70

---

Target: HLA-A*26:02
Assay: IEDB peptide-MHC binding, purified MHC/direct/fluorescence; filed as Kd, often an IC50 or EC50 that approximates it; bounds were set here for any values at or beyond the usual limits of such assays
Details: source organism: Ravn virus - Ravn, Kenya, 1987
pKd: −log10 of the molar value.
measureName: pKd

# query: pKd of entry LEHGLYPQL
≤ 4.70

---

Please respond with reported pKd for every item in the list.
Target: HLA-B*18:01
Assay: IEDB peptide-MHC binding, purified MHC/competitive/radioactivity; filed as Kd, often an IC50 or EC50 that approximates it; bounds were set here for any values at or beyond the usual limits of such assays
Details: source organism: Mammarenavirus guanaritoense
Give bare numbers, as −log10 of the molar value.

In [3]: df
Out[3]:
   orderedresidues  measurename   val
0        IDFLIMRNL          pKd  4.82

Now take the following sequence into account.
Given the entry ADSEITETY , report its measured pKd.
5.86
